# Tested on: SF-268 CNS
# METHOD_DESCRIPTION: NCI tumour cell line growth inhibition, 48 h
RESULT_TYPE: TGI (µM)
Kindly provide the numeric value in µM only, without the unit symbol.

Input: Which TGI is listed for C[C@@H]1CC[C@@]2(OC1)O[C@H]1C[C@H]3[C@@H]4CC[C@H]5C[C@@H](OC6OC(CO)C(OC7OC(CO)C(O)C(OC8OCC(O)C(O)C8O)C7OC7OC(CO)C(O)C(O)C7O)C(O)C6O)[C@H](O)C[C@]5(C)[C@H]4CC[C@]3(C)[C@H]1[C@@H]2C (some centres undefined) ?
Output: 23.7

Input: Which TGI is listed for "Cc1ccc(N/C(SCc2ccccc2)=C(\C(Cl)=C(Cl)Cl)[N+](=O)[O-])c(C)c1" ?
Output: 29.8

Input: Which TGI is listed for "Oc1c(Cl)c(Cl)c(O)c2c1CCCC2" ?
Output: 24.8

Input: Which TGI is listed for "CCSc1nc(SCC)c2c(-c3ccc(OC)c(OC)c3)c(C#N)c(SCC)nc2n1" ?
Output: 77.4

* * *

# System: EKVX NSCLC
# METHOD_DESCRIPTION: NCI tumour cell line growth inhibition, 48 h
Task for the reader: assign each of the following compounds its reported TGI.

Input: Which TGI is listed for "CCc1cccc(C)c1NC(=O)C1=C(C)NC(C)=C(C(=O)Nc2c(C)cccc2CC)C1c1ccc2c(c1)OCO2" ?
Output: 58.6 µM

Input: Which TGI is listed for "O=C(c1cc2c(c3ccccc13)NC1(CCCCC1)N=C2C(F)(F)F)C(F)(F)F" ?
Output: 15.7 µM

Input: Which TGI is listed for "COc1ccc2nc3cc(Cl)ccc3c(SCC(=O)Nc3ccccc3-c3ccccc3NC(=O)CSc3c4ccc(Cl)cc4nc4ccc(OC)cc34)c2c1" ?
Output: > 100 µM

Input: Which TGI is listed for CC1=C(CCC(C)NCc2ccc(OCCCN3CCCCC3)cc2)C(C)(C)CCC1 (centres undefined) ?
Output: 3.94 µM

Input: Which TGI is listed for "Cc1cccc(N/C(Sc2ccccc2)=C(/C(Cl)=C(Cl)Cl)[N+](=O)[O-])c1" ?
Output: 42.7 µM

Input: Which TGI is listed for "Cc1ccc(C(=O)N/N=C(\N=Nc2ccc(C(=O)O)cc2)c2ccc(N(CCC#N)CCC#N)cc2C)cc1" ?
Output: > 100 µM

Input: Which TGI is listed for "c1ccc(CSC2(SCc3ccccc3)CCCCC2)cc1" ?
Output: > 10 µM

Input: Which TGI is listed for "COc1cc(OC)c2[nH]c3c(O)c(-c4c(C)cc5c([nH]c6c(OC)cc(OC)cc65)c4O)c(C)cc3c2c1" ?
Output: 12.7 µM

Input: Which TGI is listed for CC1=C(C(=O)N[C@@H](CC(C)C)C(=O)O)N2C(=O)[C@@H](NC(=O)C(N)c3ccccc3)[C@H]2SC1 (some centres undefined) ?
Output: > 100 µM

Input: Which TGI is listed for "CN(C)C(=O)c1cnc2oc3ccc(O)cc3c2c1-c1ccccc1" ?
Output: > 25 µM

Input: Which TGI is listed for "O=c1oc2c(Cl)cc(Cl)cc2cc1C1=CSC2=NCCN12" ?
Output: > 100 µM

Input: Which TGI is listed for "CCN(CC)c1oc(N(CC)CC)c(C(=O)Nc2ccccn2)c(=O)c1C(C)=O" ?
Output: > 100 µM

Input: Which TGI is listed for "O=C(c1ccccc1)N1C(=S)N(c2ccccn2)C(=Nc2ccccc2)C1=Nc1ccccc1" ?
Output: > 100 µM

Input: Which TGI is listed for "O=C(N/C(=C\c1ccc(/C=C(\NC(=O)c2ccccc2)c2nc3ccccc3[nH]2)cc1)c1nc2ccccc2[nH]1)c1ccccc1" ?
Output: > 100 µM

Input: Which TGI is listed for "CNC1(C(=O)O)CC1" ?
Output: > 100 µM

Input: Which TGI is listed for C=C1CC[C@@H]2[C@](C)(COC(C)=O)[C@H](OC(C)=O)CC[C@@]2(C)[C@@H]1CC(Nc1ccc(S(=O)(=O)Nc2ccc(Cl)nn2)cc1)C1=CCOC1=O (some centres undefined) ?
Output: 17 µM

Input: Which TGI is listed for "COc1ccc(CC2(Cc3ccc(OC)cc3)CCOC2=O)cc1" ?
Output: > 100 µM

Input: Which TGI is listed for "Cc1cn2c(/C=C3/C(=O)Nc4ccc(O)cc43)c(C)nc2s1" ?
Output: > 100 µM

Input: Which TGI is listed for COc1cc2c(cc1OC)[C@@H](Nc1ccc(F)cc1)C1COC(=O)[C@@H]1C2c1cc(OC)c(O)c(OC)c1 (some centres undefined) ?
Output: > 100 µM
